- test system: T1, TBD-17 (HC S104A)
- T1 construct: Fab; also called HC S104A mutant
- T1 sequence (VH, as listed by the source, chain 1 of 2): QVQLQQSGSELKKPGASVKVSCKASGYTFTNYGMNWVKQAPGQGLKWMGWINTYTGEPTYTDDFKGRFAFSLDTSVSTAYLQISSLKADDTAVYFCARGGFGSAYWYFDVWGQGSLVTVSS
- T1 sequence (VL, as listed by the source, chain 2 of 2): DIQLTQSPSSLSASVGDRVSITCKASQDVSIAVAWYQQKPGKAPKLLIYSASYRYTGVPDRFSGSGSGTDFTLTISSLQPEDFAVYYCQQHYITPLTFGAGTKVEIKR
- test method notes: competition ELISA, peptide vs Fab binding to captured biotin-TROP2
Where no end group is shown, it is not given here.
The binders listed here are annotated with their IC50.
Hi! Could you send only the number? It should be in µM, unit omitted.

Some solved cases for reference:
IDFCLIYNWPVCDT (cysteine pairing not given here; also: biotinylated, site not given here) [Peptide-63]: 1.4
PDFCYMYGWPICDS (cysteine pairing not given here; also: biotinylated, site not given here) [Peptide-32]: 9.44

Query: Record request: IC50 value, item VDFCGLYHWPICYQVD (cysteine pairing not given here; also: biotinylated, site not given here) [Peptide-39]
Result: 1.69

Query: What do you get for PDFCYMYNWPVCVT (cysteine pairing not given here; also: biotinylated, site not given here) [Peptide-33] ?
Result: 6.01

Query: Repeat with VDFCKIYSWPVCHQ (cysteine pairing not given here; also: biotinylated (site not given here)) [Peptide-25]
Result: 3.75
